# target.entity: Human PD-L1/PD-1 (Homo sapiens, UniProt Q9NZQ7)
# Construct: TVMV protease cleavage site (C); made in house; host or cells: HEK293T cells
# Sequence (Q9NZQ7 with tags, fused parts or gaps): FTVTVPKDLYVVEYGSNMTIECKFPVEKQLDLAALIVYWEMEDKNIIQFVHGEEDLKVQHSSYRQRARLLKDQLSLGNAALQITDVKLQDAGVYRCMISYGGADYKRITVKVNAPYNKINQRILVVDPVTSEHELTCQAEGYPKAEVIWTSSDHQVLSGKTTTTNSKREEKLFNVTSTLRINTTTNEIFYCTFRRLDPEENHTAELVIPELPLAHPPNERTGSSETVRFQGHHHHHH
# assay.protocol: HTRF Human PD-L1/PD-1 binding assay (PD-1-Ig/PD-L1-His)
# recorded.conditions: PD-L1-His 10 nM, PD-1-Ig 20 nM; class symbol; read-out: HTRF Human PD-L1/PD-1 Binding Assay IC50 Range
pIC50: −log10 of the molar value. Where a SMILES comes first, the peptide text is derived from it. Bridges are numbered along the chain shown (N, C = ends). [ ]: non-standard residue; d: D form. Bta = N[C@@H](Cc1csc2ccccc12)C(=O)O; NMeF = CN[C@@H](Cc1ccccc1)C(=O)O; NMeNle = CCCC[C@H](NC)C(=O)O; Sar = CNCC(=O)O
readout: pIC50

1. CCCC[C@H]1C(=O)N(C)CC(=O)N[C@@H](CC(=O)O)C(=O)N[C@@H](C(C)C)C(=O)N(C)[C@@H](Cc2ccccc2)C(=O)N[C@@H](Cc2ccc(O)cc2)C(=O)N(C)CC(=O)N[C@@H](Cc2c[nH]c3ccccc23)C(=O)N[C@@H](Cc2ccc(O)cc2)C(=O)N[C@@H](CC(C)C)C(=O)N[C@H](C(=O)NCC(N)=O)CSCC(=O)N[C@@H](Cc2csc3ccccc23)C(=O)N(C)[C@@H](Cc2ccccc2)C(=O)N1C [Example 3245] ({CH2CO}-[Bta][NMeF][NMeNle][Sar]DV[NMeF]Y[Sar]WYLCG-NH2; thioether N-13); 5.00 to 6.00

###

# target.entity: Human PD-L1/PD-1 (Homo sapiens, UniProt Q9NZQ7)
# Construct: TVMV protease cleavage site (C); made in house; host or cells: HEK293T cells
# assay.protocol: HTRF Human PD-L1/PD-1 binding assay (PD-1-Ig/PD-L1-His)
# recorded.conditions: PD-L1-His 10 nM, PD-1-Ig 20 nM; class symbol; read-out: HTRF Human PD-L1/PD-1 Binding Assay IC50 Range
pIC50: −log10 of the molar value. Where a SMILES comes first, the peptide text is derived from it. Bridges are numbered along the chain shown (N, C = ends). [ ]: non-standard residue; d: D form. ξ: configuration not given here. Phe(4-F) = N[C@@H](Cc1ccc(F)cc1)C(=O)O; Hyp = O=C(O)[C@@H]1C[C@@H](O)CN1; NMeF = CN[C@@H](Cc1ccccc1)C(=O)O; NMeNle = CCCC[C@H](NC)C(=O)O; NMeV = CN[C@H](C(=O)O)C(C)C; hSer = N[C@@H](CCO)C(=O)O; NMeA = CN[C@@H](C)C(=O)O; Orn = NCCC[C@H](N)C(=O)O; ξC = NC(CS)C(=O)O; Sar = CNCC(=O)O
readout: pIC50

1. CCCC[C@H]1C(=O)N[C@@H](CC(N)=O)C(=O)N2CCC[C@H]2C(=O)N[C@@H](CO)C(=O)N[C@@H](CCO)C(=O)N2C[C@H](O)C[C@H]2C(=O)N[C@@H](Cc2c[nH]c3ccccc23)C(=O)N[C@@H](CCCN)C(=O)N[C@@H](Cc2c[nH]c3ccccc23)C(=O)N(C)[C@@H](C)C(=O)N(C)CC(=O)N[C@@H](CCCNC(=N)N)C(=O)NC(C(=O)NCC(N)=O)CSCC(=O)N[C@@H](Cc2ccc(O)cc2)C(=O)N1C (some centres unmarked) [Example 10207] ({CH2CO}-Y[NMeNle]NPS[hSer][Hyp]W[Orn]W[NMeA][Sar]R[ξC]G-NH2; thioether N-14); 5.00 to 6.00
2. CCCC[C@H]1C(=O)N2CCC[C@@H]2C(=O)N[C@@H](CC(=O)O)C(=O)N[C@@H](C(C)C)C(=O)N(C)[C@@H](C(C)C)C(=O)N[C@@H](CCC(N)=O)C(=O)N2CCC[C@@H]2C(=O)N[C@@H](Cc2c[nH]c3ccccc23)C(=O)N[C@@H](Cc2ccc(O)cc2)C(=O)N[C@@H](CC(C)C)C(=O)N[C@H](C(=O)NCC(N)=O)CSCC(=O)N[C@@H](Cc2ccc(F)cc2)C(=O)N(C)[C@@H](Cc2ccccc2)C(=O)N1C [Example 9245] ({CH2CO}-[Phe(4-F)][NMeF][NMeNle][dP]DV[NMeV]Q[dP]WYLCG-NH2; thioether N-13); 5.00 to 6.00
